Parameter normalized growth: see the listing below.
Test: chemical genetic growth profiling, strain panel (AID 1159580);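 note: tested at 20 µM; growth read once vehicle control cultures reached saturation at 30 °C; 1 = growth at the plate median or of vehicle wells; lower values mean less growth of the strain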
Details: S. cerevisiae deletion strains, growth OD, locus YDR101C, strain arx1, active compounds read low
Hit rate of the full screen: of about 5,500 compounds, about 2,000 (36%) were called active. About 18% were inconclusive and are not listed. The list shows a part of the results.
Please give the numeric answer without any surrounding text.

// known answers, use as guide
compound: O=c1[nH]cnc2c1ncn2C1O[C@H](CO)[C@@H](O)[C@H]1O (some centres not stated)
normalized growth: 1.05
--
compound: NCC1OC(OC2C(CO)OC(OC3C(O)C(N)CC(N)C3OC3OC(CO)C(O)CC3N)C2O)C(N)C(O)C1OC1OC(CO)C(O)C(O)C1O (configuration not stated)
normalized growth: 0.978
--
compound: CN(C)CCc1c[nH]c2ccc(CS(=O)(=O)N3CCCC3)cc12
normalized growth: 0.986
--
compound: Cc1cc(C(C)(C)C)cc(C)c1CC1=NCCN1
normalized growth: 1
--
compound: Cc1cc(C(C)(C)C)c(O)c(C)c1CC1=NCCN1
normalized growth: 0.993

Any idea what normalized growth was measured for CC(NCCC(c1ccccc1)c1ccccc1)c1ccccc1 (configuration not stated) ?
0.994

Any idea what normalized growth was measured for COc1cc(/C=C/C=O)cc(OC)c1OC ?
1.02

Any idea what normalized growth was measured for COc1c2occc2c(OC)c2c(=O)cc(C)oc12 ?
0.988

Any idea what normalized growth was measured for CCOC([O-])=Nc1c[n+](N2CCOCC2)no1 ?
0.972
